# maps each entry to its z-score
Assay: PSAC antagonists in infected red cells, primary screen, cell-based, P. falciparum Indochina, OD700, 2 h (AID 1155);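 note: lysis reports solute entry through the parasite surface anion channel PSAC; channel blockers reduce lysis of infected cells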
Settings: P. falciparum Indochina infected erythrocytes, osmotic lysis OD700; higher = more signal, called active from +8 up or from −8 down
No unit in the answer, please; the number alone is enough.

CCO[C@H](c1cc(OC)cc([N+](=O)[O-])c1OC)[C@H](C)C=CCC(=O)OC : -0.222
C[C@@H]1CC[C@H]2C(=O)O[C@@H](Cc3ccccc3)CN2[C@H]1c1ccc(Br)cc1 : 0.935
CC(=O)O[C@H]1C2=CO[C@H](C)[C@H]3[C@H]4C5=C([C@H](O)[C@H]6O[C@H]6C5=O)[C@H](OC4C)[C@@]23C(=O)[C@@H]2O[C@@H]21 (some centres undefined) : -0.431

Now look at this one.
Task: // query z-score value for entry C[C@@H]1CC[C@H]2C(=O)O[C@@H](COc3ccc(C(C)(C)C)cc3)CN2[C@@H]1c1ccc(Br)cc1
Result: 0.681
